Data credit: ChEMBL document CHEMBL5352429

- Tested on: Candida albicans
- measurement_notes: Antifungal activity against Candida albicans ATCC 10231 incubated overnight by standard microtiter dilution method
- Type: functional
Peptide text beside a SMILES is read from it.
Known MIC of a selection of compounds
Write it as a number; the unit µg/mL goes unstated.

A selection of reference data follows.
[
  {
    "compound": "CC(C)C[C@H](NC(=O)[C@H](CCCCN)NC(=O)[C@H](CC(C)C)NC(=O)[C@H](CCCCN)NC(=O)[C@H](CC(C)C)NC(=O)[C@H](CCCCN)NC(=O)[C@H](CS)NC(=O)CNC(=O)[C@H](CO)NC(=O)[C@H](CCCCN)NC(=O)[C@@H](NC(=O)[C@H](CS)NC(=O)[C@H](CCCCN)NC(=O)[C@H](CC(C)C)NC(=O)[C@H](CCCCN)NC(=O)[C@H](CC(C)C)NC(=O)[C@H](CCCCN)NC(=O)[C@@H](N)CC(C)C)[C@@H](C)O)C(N)=O (H-LKLKLKCTKSGCKLKLKL-NH2)",
    "target": "Candida albicans",
    "endpoint_unit": "µg/mL",
    "MIC": 128
  },
  {
    "compound": "CC(C)[C@H](N)C(=O)N[C@@H](CCCCN)C(=O)N[C@H](C(=O)N[C@@H](CCCCN)C(=O)N[C@@H](CS)C(=O)N[C@H](C(=O)N[C@@H](CCCCN)C(=O)N[C@@H](CO)C(=O)NCC(=O)N[C@@H](CS)C(=O)N[C@@H](CCCCN)C(=O)N[C@H](C(=O)N[C@@H](CCCCN)C(=O)N[C@H](C(N)=O)C(C)C)C(C)C)[C@@H](C)O)C(C)C (H-VKVKCTKSGCKVKV-NH2)",
    "target": "Candida albicans",
    "endpoint_unit": "µg/mL",
    "MIC": 16
  },
  {
    "compound": "CN[C@@H]1[C@H](O[C@H]2[C@H](O[C@H]3[C@H](O)[C@@H](O)[C@H](N=C(N)N)[C@@H](O)[C@@H]3N=C(N)N)O[C@@H](C)[C@]2(O)C=O)O[C@@H](CO)[C@H](O)[C@H]1O",
    "target": "Candida albicans",
    "endpoint_unit": "µg/mL",
    "MIC": 128
  }
]

Query string: Report MIC for C[C@@H](O)[C@H](NC(=O)[C@H](CS)NC(=O)[C@H](CCCCN)NC(=O)[C@@H](N)Cc1c[nH]c2ccccc12)C(=O)N[C@@H](CCCCN)C(=O)N[C@@H](CO)C(=O)NCC(=O)N[C@@H](CS)C(=O)N[C@@H](CCCCN)C(=O)N[C@@H](Cc1c[nH]c2ccccc12)C(N)=O (H-WKCTKSGCKW-NH2) please.
Result string: 64
